Target: T1, cyno SIRPα-Fc (cynomolgus)
T1 construct: a signal peptide may be part of the entry
Assay: BLI Octet, antigen-Fc on biosensor;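 note: antigen captured on the biosensor tip and then immersed in solutions of the test antibodies, which act as the analyte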
valueType: kon (M⁻¹ s⁻¹)
Numeric answer only, unit M⁻¹ s⁻¹ assumed.

Measured kon of SIRPAB-13 (antibody, human IgG1, kappa, V domains shown) VH: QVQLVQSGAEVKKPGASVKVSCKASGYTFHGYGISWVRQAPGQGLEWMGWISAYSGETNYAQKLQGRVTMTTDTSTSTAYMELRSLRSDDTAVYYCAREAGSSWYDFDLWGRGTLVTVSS VL: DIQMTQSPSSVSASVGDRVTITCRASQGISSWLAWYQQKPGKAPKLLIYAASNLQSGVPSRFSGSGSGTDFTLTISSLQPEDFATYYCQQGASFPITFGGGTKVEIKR : 1.32e+06
